- Tested on: Salmonella typhimurium
- ASSAY OVERVIEW: Example 1: effect of pH buffering of acetic and propionic acid on antimicrobial activity in water
- Format: cell-based
- TEST PARAMETERS: Product Conc. 0.1 (% acid solution in water); 4 hr
Below: a set of entries, each annotated with reported Salmonella at time Interval 4 hr cfu/g.
Kindly provide the numeric value in cfu/g only, without the unit symbol.

Please review the following examples before continuing.
[[record]]
compound = "CC(=O)O [Acetic pH 4, Acetic acid]"
units_symbol = "cfu/g"
numeric_result = 1167

[[record]]
compound = "CC(=O)O [Acetic pH 6, Acetic acid]"
units_symbol = "cfu/g"
numeric_result = 1633

[[record]]
compound = "CCC(=O)O [Propionic pH 1, Propionic acid]"
units_symbol = "cfu/g"
numeric_result = 450

[[record]]
compound = "CC(=O)O [Acetic pH 2, Acetic acid]"
units_symbol = "cfu/g"
numeric_result = 670

[[record]]
compound = "CCC(=O)O [Propionic pH 3, Propionic acid]"
units_symbol = "cfu/g"
numeric_result = 603

[[record]]
compound = "CCC(=O)O [Propionic pH 2, Propionic acid]"
units_symbol = "cfu/g"
numeric_result = 380


Let us move to another entry and its Salmonella at time Interval 4 hr cfu/g.
// Salmonella at time Interval 4 hr cfu/g value for CCC(=O)O [Propionic pH 6, Propionic acid] : 1700

* * *

Below: a set of entries, each annotated with reported Salmonella at time Interval 4 hr cfu/g.
- Test system: Salmonella typhimurium
- ASSAY OVERVIEW: Example 2: effect of carbon chain length of individual organic acids on antimicrobial activity in water
- Type: cell-based
- TEST PARAMETERS: Product Conc. 0.1 (% acid solution in water); 4 hr

[[record]]
compound_smiles = "CCCCCC(=O)O"
result = "27 cfu/g"

[[record]]
compound_smiles = "CCCCCCC(=O)O"
result = "0 cfu/g"


// Salmonella at time Interval 4 hr cfu/g value for CCCCCCCC(=O)O : 0 cfu/g

// Salmonella at time Interval 4 hr cfu/g value for CCCCC(=O)O : 657 cfu/g

// Salmonella at time Interval 4 hr cfu/g value for CCC(=O)O : 773 cfu/g

// Salmonella at time Interval 4 hr cfu/g value for CCCCCCCCC(=O)O : 0 cfu/g

// Salmonella at time Interval 4 hr cfu/g value for CCCCCCCCCCCC(=O)O : 0 cfu/g

* * *

- Tested on: Salmonella typhimurium
- ASSAY OVERVIEW: Example 1: effect of pH buffering of acetic and propionic acid on antimicrobial activity in water
- Format: cell-based
- TEST PARAMETERS: Product Conc. 0.1 (% acid solution in water); 4 hr
Below: a set of entries, each annotated with reported Salmonella at time Interval 4 hr % reduction.

Please review the following examples before continuing.
[[record]]
compound = "CCC(=O)O [Propionic pH 4, Propionic acid]"
result = "22%"

[[record]]
compound = "CCC(=O)O [Propionic pH 1, Propionic acid]"
result = "70%"

[[record]]
compound = "CC(=O)O [Acetic pH 5, Acetic acid]"
result = "14%"

[[record]]
compound = "CC(=O)O [Acetic pH 4, Acetic acid]"
result = "22%"

[[record]]
compound = "CCC(=O)O [Propionic pH 7, Propionic acid]"
result = "0%"

[[record]]
compound = "CC(=O)O [Acetic pH 6, Acetic acid]"
result = "0%"


Simply: CC(=O)O [Acetic pH 2, Acetic acid] , Salmonella typhimurium, Salmonella at time Interval 4 hr % reduction = 55%

Simply: CCC(=O)O [Propionic pH 2, Propionic acid] , Salmonella typhimurium, Salmonella at time Interval 4 hr % reduction = 75%
